- Test system: SF-539 CNS
- ASSAY_REMARKS: NCI-60 one-dose screen, 48 h
- EXPERIMENTAL_CONTEXT: 10 µM unless noted
The panel holds about 83,000 compounds, 20% with a hit somewhere; the sample as a whole holds those more often. Active and inactive are the calls of the source. Rule for the calls: active = growth percent below 10; inactive = the rest.
A correct response names exactly one class from active, inactive

The examples below pair each entry with its known result.
- COc1ccc(NC(=O)CSc2nnc(-c3ccc(-c4nc5ccc(Cl)cc5[nH]4)cc3)o2)cc1: active
- COc1cc(/C=N/NC(=O)c2ccc(OCc3nc4ccc(C)cc4[nH]3)cc2)cc(OC)c1OC: inactive
- Cc1cc(C(NC(=O)C2CC3(CC(Nc4cccc5c4C(=O)N(C4CCC(=O)NC4=O)C5=O)C3)C2)c2ccc3c(c2)OC(F)(F)O3)c(O)c2ncccc12 (configuration not stated): active
- CCCCNC(=S)Nc1ccc(OCc2nc3ccc(Cl)cc3[nH]2)cc1: inactive
- COc1cc(CNC(=O)C[C@H](C)CCC=C(C)C)ccc1OCc1cn(-c2ccc(Cl)c(Cl)c2)nn1: active
- Cc1ccc(-c2cc(C(=O)N=Nc3c(O)[nH]c4ccc(F)cc34)c3ccccc3n2)cc1: active

Query :: Answer briefly: the call reported for CC1=C(C)C(=O)C(N2CCSCC2)=CC1=O in this assay.
Result :: inactive

Query :: Lab log entry: O=C(N=Nc1c(O)[nH]c2ccc(Cl)cc12)c1ccc2nc(-c3ccc(Cl)cc3)[nH]c2c1 — outcome as called in the assay?
Result :: active

Query :: How was O=C(Cc1c(-c2ccccc2[N+](=O)[O-])n(-c2ncnc3c2c(-c2ccccc2)c(-c2ccccc2)n3Cc2ccccc2)[nH]c1=O)c1ccc(Cl)c(Cl)c1 classified in this test?
Result :: inactive

* * *

- Test system: K-562 leukemia
- ASSAY_REMARKS: NCI-60 one-dose screen, 48 h
- EXPERIMENTAL_CONTEXT: 10 µM unless noted
Compounds without any hit were thinned out: in the full panel of roughly 83,000, 20% have a hit. Activity calls are given as the source filed them. Rule for the calls: active = growth percent below 10; inactive = the rest.
Answer with one of the outcomes y for active, n for inactive

Solved cases (5 shown):
* COc1cc(NC(=O)C(C)C)ccc1C(=O)NC(=S)Nc1ccc(S(N)(=O)=O)cc1 | n
* OC1CCC(Cn2c(C(F)(F)F)cc3c(Cl)ncnc32)CC1 (stereo unspecified) | y
* O=C(c1cc2cc(OCCCN3CCC3)ccc2[nH]1)N1C[C@@H](CCl)c2c1cc(OCc1ccccc1)c1ccccc21 | y
* CCc1ccccc1NC(=O)N/C(N)=N/c1nc2ccccc2s1 | n
* O=C(Cn1c(/C=C/c2ccc([N+](=O)[O-])cc2)nc2ccccc2c1=O)Nc1ccccc1 | n

As a next step, examine the compound that follows.
Query :: Please indicate how the test categorized Clc1ccccc1Nc1nnc(-c2c[nH]c3ccccc23)o1 .
Result :: y

* * *

- Tested on: MCF7 breast
- ASSAY_REMARKS: NCI-60 one-dose screen, 48 h (100 = growth as untreated, 0 = no growth, -100 = all killed)
- EXPERIMENTAL_CONTEXT: 10 µM unless noted
The panel holds about 83,000 compounds, 20% with a hit somewhere; the sample as a whole holds those more often. Activity calls are given as the source filed them. Rule for the calls: active = growth percent below 10; inactive = the rest.
MEASURE_NAME: growth

Consider the following illustrative entries.
* O=C(CSc1nc2sc3c(c2c(=O)n1-c1ccc(Cl)cc1)CCCC3)N/N=C/C=C/c1ccccc1 | 12.6% (inactive)
* CC(=O)c1ccc2c(N)c(C(=O)Nc3ccc(C(F)(F)F)cc3)sc2n1 | 27.8% (inactive)
* Cc1ccccc1NC(=O)c1cccc(NC(=O)CCl)c1 | 19.2% (inactive)

Query :: Dear colleague, I am looking for the recorded growth of the following compound: O=C(CSc1nc2sc3c(c2c(=O)n1-c1ccc(Cl)cc1)CCCC3)NNC(=O)c1ccc(F)cc1
Result :: 61.9% (inactive)

Query :: growth lookup needed for O=C(NNC(=S)NCCc1ccccc1)c1ccc(OCc2nc3ccc(Cl)cc3[nH]2)cc1 , thanks.
Result :: 34.2% (inactive)

Query :: Quick check: growth of CN1CCN(c2ccc3c4c(cccc24)C(=O)N(c2cccc(-c4nn(-c5ccccc5)cc4-c4nc5ccccc5s4)c2)C3=O)CC1 ?
Result :: 5.13% (active)

* * *

- Tested on: EKVX NSCLC
- ASSAY_REMARKS: NCI-60 one-dose screen, 48 h (100 = growth as untreated, 0 = no growth, -100 = all killed)
- EXPERIMENTAL_CONTEXT: 10 µM unless noted
The panel holds about 83,000 compounds, 20% with a hit somewhere; the sample as a whole holds those more often.
Respond with t for growth values of 40% and above, f for values below.

- COc1ccc2c(c1)C(=O)N(C)C2C1c2c(cc3c(c2OC)OCO3)CCN1C (stereo not given): t
- N#CC1=C(c2ccco2)Nc2c(c(-c3ccccc3)nn2-c2ccccc2)C12C(=O)Nc1ccc(Cl)cc12 (stereo not given): f
- COc1ccc(-c2nnc3c(/C=C/c4ccc(Br)cc4)nc4ccccc4n23)cc1: t
- O=C(Nc1ccc(Br)cc1)Nc1ccc(-c2ccc3c(c2)NC(=O)/C3=C\c2ccc[nH]2)cc1: t
- COc1cc(CNC(=O)[C@]23CCC(C)(C)CC2C2=CCC4[C@@]5(C)CCC(OC(C)=O)C(C)(C)C5CC[C@@]4(C)[C@]2(C)CC3)ccc1OCc1cn(-c2ccc(Cl)cc2Cl)nn1 (stereo not given in full): t

Query :: Dear colleague, could you confirm whether COC(=O)c1c(C(=O)OC)c2ccc3c4ccccc4ccc3n2c1C(=O)C(C)Br (stereo not given) has growth at or above 40%?
Result :: t

Query :: Can COc1ccc(-c2cc(C(=O)N=Nc3c(O)[nH]c4ccc(Cl)cc34)c3ccccc3n2)cc1OC be said to have growth at or above 40%?
Result :: t

Query :: Textbook exercise: given the entry S=C(NCCc1ccccc1)Nc1ccc(OCc2nc3ccc(Cl)cc3[nH]2)cc1 , state whether its growth is greater than or equal to 40%.
Result :: f

Query :: Form field: growth at least 40%? Entry: O=C(N/N=C/c1c[nH]c2ccccc12)Nc1ccccc1Cl
Result :: f

Query :: Is growth for CN1CCN(CCS(=O)(=O)Nc2cc(-c3ccc4ncnc(Nc5ccc(F)c(Cl)c5)c4c3)cnc2Cl)CC1 at or above 40%?
Result :: f

* * *

- Test system: NCI-H322M lung
- ASSAY_REMARKS: NCI-60 one-dose screen, 48 h (100 = growth as untreated, 0 = no growth, -100 = all killed)
- EXPERIMENTAL_CONTEXT: 10 µM unless noted
The panel holds about 83,000 compounds, 20% with a hit somewhere; the sample as a whole holds those more often. Activity calls are given as the source filed them. How the source made its calls: active means growth percent below 10; inactive means the rest.
MEASURE_NAME: growth

Worked examples follow.
- CCOC(=O)c1ccc(NC(=S)NC(=O)c2cccc(NC(=O)c3ccc(C)cc3)c2)cc1: 74.7% (inactive)
- Cc1ccc(C2CC(c3ccc(S(=O)(=O)NCCNc4nc(N(C)C)nc(N5CCOCC5)n4)cc3)=Nc3c(N)nc(N)nc3N2)cc1 (stereo not drawn): 77.3% (inactive)
- Cc1ccc(NC(=O)N/N=C/c2c[nH]c3ccccc23)c(C)c1: 42% (inactive)
- Cc1ccc(C2CC(c3ccc(NC(=O)Nc4ccccc4)cc3)=NN2c2ccc(S(C)(=O)=O)cc2)cc1 (stereo not drawn): 6.06% (active)
- COc1ccc2[nH]c(O)c(N=Nc3nc(-c4ccccc4)cs3)c2c1: 26.5% (inactive)

Query :: Request the reported growth associated with S=C(Nc1ccccc1)Nc1ccc(OCc2nc3ccc(Cl)cc3[nH]2)cc1
Result :: 89.5% (inactive)

Query :: Return reported growth; argument: CC(C)C[C@H](NC(=O)CNC(=O)C[C@H]1O[C@@H]2OC3(C)CC[C@H]4[C@H](C)CC[C@@H]([C@H]1C)[C@@]24O3)B(O)O
Result :: 54.4% (inactive)

Query :: Need growth, item COc1c2c(c(Br)c3c1C(CCc1ccccc1)N(C)CC3)OCO2 (stereo not drawn)
Result :: 38.5% (inactive)

Query :: Given the molecule CCCn1c(NC(=O)c2cccc(C(N)=O)c2)nc2ccc(CN3CCCCC3)cc21 , what is its reported growth?
Result :: 82% (inactive)

Query :: Bench note: what growth did COc1ccc(NC(=O)NN2C(=O)c3ccccc3N(C)C2c2ccc(OC)cc2)cc1 (stereo not drawn) show?
Result :: 95.8% (inactive)

Query :: I am curious: what growth value has been reported for COc1ccc(S(=O)(=O)Nc2ccc(-c3ccc4c(c3)NC(=O)/C4=C\c3ccc[nH]3)cc2)cc1OC ?
Result :: 31.6% (inactive)

Query :: Param item = CNS(=O)(=O)N1CCc2c(Br)c3c(c(OC)c2C1CCc1ccccc1)OCO3 (stereo not drawn) ; retrieve measured growth.
Result :: 4.7% (active)

Query :: // returns reported growth for input N#C/C(=C1/C(=O)Nc2ccccc21)c1nnc(NC(=O)c2ccc(-n3c(=O)[nH]c4ccccc4c3=O)cc2)s1
Result :: 53.6% (inactive)

Source listed as PubChem BioAssay (NCI).
